Data credit: paper PMC12434670

# System: Virg09 virus clones with HA mutations
# Type: cell-based, influenza A virus
# Particulars: read-out: EC50 against all virus clones selected under VF-57a or RL-007
Let's look at some compounds and their measured EC50.
Observed Property: EC50

# Compound, Target Of Assay, Observed Measurement
data = [
    ("CC(C)c1ccccc1NCCN1CCCCC1 [RL-007, reference compound]", "Virg09 virus clones with HA mutations", "> 40 µM"),
    ("Cc1cc(CNC(=O)c2cc(Cl)cc(C(F)(F)F)c2)c(C)s1", "Virg09 virus clones with HA mutations", "> 40 µM"),
]
